TARGET_SYSTEM: human TAS2R1 (Homo sapiens)
Construct: expressed in transfected cells; host or cells: HEK293T-Gα16gust44
Sequence (Q9NYW7 whole entry): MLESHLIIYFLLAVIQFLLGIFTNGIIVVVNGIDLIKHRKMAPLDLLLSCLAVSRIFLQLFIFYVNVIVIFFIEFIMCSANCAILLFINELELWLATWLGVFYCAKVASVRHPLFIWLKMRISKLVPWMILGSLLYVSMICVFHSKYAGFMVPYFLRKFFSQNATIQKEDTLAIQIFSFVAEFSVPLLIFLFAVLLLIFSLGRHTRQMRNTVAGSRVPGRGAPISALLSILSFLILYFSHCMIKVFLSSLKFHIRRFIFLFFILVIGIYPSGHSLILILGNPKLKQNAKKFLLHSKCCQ
ASSAY_PROCEDURE: Calcium imaging assay (FLIPR), HEK293T-Gα16gust44 cells transfected with human TAS2R1
Assay type: cell-based
DETAILS: conc. 0,01 mM; TAS2R1
Recorded Δ F/F, one value per entry.
A bare number is all that is needed in reply.

Some solved entries appear below for comparison.
{"COMPOUND": "C[C@H](CCC(=O)O)[C@H]1CC[C@H]2[C@@H]3[C@H](O)C[C@@H]4C[C@H](O)CC[C@]4(C)[C@H]3CC[C@]12C [Chenodeoxycholic Acid, chenodeoxycholic acid]", "TARGET_SYSTEM": "human TAS2R1 (Homo sapiens)", "ENDPOINT_NAME": "Δ F/F", "REPORTED_RESULT": 0.1118}
{"COMPOUND": "C[C@H](CCC(=O)NCCS(=O)(=O)O)[C@H]1CC[C@H]2[C@@H]3[C@H](O)C[C@@H]4C[C@H](O)CC[C@]4(C)[C@H]3C[C@H](O)[C@]12C [Taurocholic Acid, taurocholic acid]", "TARGET_SYSTEM": "human TAS2R1 (Homo sapiens)", "ENDPOINT_NAME": "Δ F/F", "REPORTED_RESULT": 0.007126}
{"COMPOUND": "C[C@H](CCC(=O)O)[C@H]1CC[C@H]2[C@@H]3[C@@H](O)C[C@@H]4C[C@H](O)CC[C@]4(C)[C@H]3CC[C@]12C [Ursodeoxycholic Acid, ursodeoxycholic acid]", "TARGET_SYSTEM": "human TAS2R1 (Homo sapiens)", "ENDPOINT_NAME": "Δ F/F", "REPORTED_RESULT": 0.05863}

Lab note: next compound to report on.
// Δ F/F lookup, key: C[C@H](CCC(=O)NCC(=O)O)[C@H]1CC[C@H]2[C@@H]3[C@H](O)C[C@@H]4C[C@H](O)CC[C@]4(C)[C@H]3C[C@H](O)[C@]12C [Glycocholic Acid, glycocholic acid]
0.004283

----------
TARGET_SYSTEM: human TAS2R14 (Homo sapiens, UniProt Q9NYV8)
Construct: expressed in transfected cells; host or cells: HEK293T-Gα16gust44
Sequence (Q9NYV8 1-317): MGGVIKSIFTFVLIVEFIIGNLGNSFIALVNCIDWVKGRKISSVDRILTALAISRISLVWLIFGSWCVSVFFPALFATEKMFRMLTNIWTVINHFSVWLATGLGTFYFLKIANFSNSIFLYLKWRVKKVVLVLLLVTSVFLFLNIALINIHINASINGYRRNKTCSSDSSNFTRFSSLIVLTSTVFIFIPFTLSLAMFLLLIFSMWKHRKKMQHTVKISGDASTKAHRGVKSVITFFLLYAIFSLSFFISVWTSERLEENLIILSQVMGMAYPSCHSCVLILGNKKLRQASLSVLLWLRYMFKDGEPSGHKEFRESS
ASSAY_PROCEDURE: Calcium imaging assay (FLIPR), HEK293T-Gα16gust44 cells transfected with human TAS2R14
Type: cell-based
DETAILS: TAS2R14 trace; Time (s) 48.797 (Chenodeoxycholic Acid 48.781)
Method: This set of bile acids was chosen because of their commercial availability in high purities, their diversity within the class of bile acids and their previous detection and quantitation in human blood. Stock solutions were prepared in DMSO. […] Measured data were negative control corrected by subtracting the signal of the mock-transfected cells and exported to Microsoft Excel using the FLIPR software ScreenWorks 4.2. […]
Would you please tag the item condition met when its RLU is 300 RLU or above, and condition not met when it is below?

Reference set (4 entries):
{"MOLECULE": "C[C@H](CCC(=O)O)[C@H]1CC[C@H]2[C@@H]3[C@H](O)C[C@@H]4C[C@H](O)CC[C@]4(C)[C@H]3C[C@H](O)[C@]12C [Cholic Acid, cholic acid]", "TARGET_SYSTEM": "human TAS2R14 (Homo sapiens, UniProt Q9NYV8)", "GROUP": "condition met"}
{"MOLECULE": "C[C@H](CCC(=O)NCCS(=O)(=O)O)[C@H]1CC[C@H]2[C@@H]3CC[C@@H]4C[C@H](O)CC[C@]4(C)[C@H]3CC[C@]12C [Taurolithocholic Acid, taurolithocholic acid]", "TARGET_SYSTEM": "human TAS2R14 (Homo sapiens, UniProt Q9NYV8)", "GROUP": "condition not met"}
{"MOLECULE": "C[C@H](CCC(=O)NCCS(=O)(=O)O)[C@H]1CC[C@H]2[C@@H]3[C@H](O)C[C@@H]4C[C@H](O)CC[C@]4(C)[C@H]3C[C@H](O)[C@]12C [Taurocholic Acid, taurocholic acid]", "TARGET_SYSTEM": "human TAS2R14 (Homo sapiens, UniProt Q9NYV8)", "GROUP": "condition met"}
{"MOLECULE": "C[C@H](CCC(=O)NCC(=O)O)[C@H]1CC[C@H]2[C@@H]3[C@H](O)C[C@@H]4C[C@H](O)CC[C@]4(C)[C@H]3C[C@H](O)[C@]12C [Glycocholic Acid, glycocholic acid]", "TARGET_SYSTEM": "human TAS2R14 (Homo sapiens, UniProt Q9NYV8)", "GROUP": "condition not met"}

Alright, here's another molecule for you.
Could you tell me if the measured RLU of C[C@H](CCC(=O)O)[C@H]1CC[C@H]2[C@@H]3[C@H](O)C[C@@H]4C[C@H](O)CC[C@]4(C)[C@H]3CC[C@]12C [Chenodeoxycholic Acid, chenodeoxycholic acid] reaches 300 RLU or more?
condition met
